system: HepG2 cells; assay: Cytotoxicity (CellTox Green) in parallel with metabolomics experiments; conditions: intermediate concentration (C3; C2 for aroclor), 48 h

COMPOUND	cytotoxicity (CellTox Green)
Cc1cccc(Nc2cc(Cl)nc(SCC(=O)O)n2)c1C [Wy-14643]	low cytotoxicity
O=c1cc(-c2ccccc2)oc2ccc3ccccc3c12 [β-naphthoflavone]	low cytotoxicity
O=C(O)c1cc(Oc2ccc(C(F)(F)F)cc2Cl)ccc1[N+](=O)[O-] [Acifluorfen]	low cytotoxicity
CCC(CC)Nc1c([N+](=O)[O-])cc(C)c(C)c1[N+](=O)[O-] [Pendimethalin]	low cytotoxicity

* * *

experiment: Cell viability (ATP, CellTiter-Glo) in parallel with metabolomics experiments; conditions: human, Percentage of viability (ATP) compared to the vehicle control, C5, C5, 48 h, n = 6
QUANTITY: viability at 48 h (%)

COMPOUND_STRUCTURE	READOUT_UNITS	VALUE_REPORTED
CCC(CC)Nc1c([N+](=O)[O-])cc(C)c(C)c1[N+](=O)[O-]	%	18.5
